experimental.protocol: mn = molality of the nth substance listed, in mol/kg
experimental.context: 303.15 K; 101 kPa; Liquid; Vibrating tube method; m2 = 0
observed.property: mass density (kg/m3)
The figure you give is taken to be in kg/m3; do not add the unit.

Below, 5 molecules whose answers are already recorded.
molecule | value.unit | mass density
CO [methanol] + [Ba+2].[O-][Cl+3]([O-])([O-])[O-].[O-][Cl+3]([O-])([O-])[O-] | kg/m3 | 781.739
C[S+](C)[O-] [dimethyl sulfoxide] + [Ca+2].[O-][Cl+3]([O-])([O-])[O-].[O-][Cl+3]([O-])([O-])[O-] | kg/m3 | 1090.16
CO [methanol] + O=S(=O)([O-])C(F)(F)F.O=S(=O)([O-])C(F)(F)F.[Be+2] | kg/m3 | 781.742
C[S+](C)[O-] [dimethyl sulfoxide] + [O-][Cl+3]([O-])([O-])[O-].[O-][Cl+3]([O-])([O-])[O-].[Sr+2] | kg/m3 | 1090.17
CO [methanol] + [Ca+2].[O-][Cl+3]([O-])([O-])[O-].[O-][Cl+3]([O-])([O-])[O-] | kg/m3 | 781.732

q: What measured mass density goes with C[S+](C)[O-] [dimethyl sulfoxide] + O=S(=O)([O-])C(F)(F)F.[Na+] ?
a: 1090.16

q: What measured mass density goes with C[S+](C)[O-] [dimethyl sulfoxide] + O=S(=O)([O-])C(F)(F)F.O=S(=O)([O-])C(F)(F)F.[Be+2] ?
a: 1090.16

q: What measured mass density goes with C[S+](C)[O-] [dimethyl sulfoxide] + [Mg+2].[O-][Cl+3]([O-])([O-])[O-].[O-][Cl+3]([O-])([O-])[O-] ?
a: 1090.16

q: What measured mass density goes with CO [methanol] + [Mg+2].[O-][Cl+3]([O-])([O-])[O-].[O-][Cl+3]([O-])([O-])[O-] ?
a: 781.735
